Values compiled from PubChem BioAssay AID2060886.

Documented viability, T/C across a set of compounds
# Tested on: 653999-131-R-J2-PDC complex spheroids, growth inhibition;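 note: spheroids exposed to the agents for seven days before the readout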
# ASSAY TEXT: Anticancer human tumor 653999-131-R-J2-PDC patient-derived lung adenocarcinoma cell line growth inhibition [RAS]
# CONDITION NOTES: second compound 0.03 µM; first compound 10 µM; stronger effect = lower value
Answer format: numeric, % implied, no suffix.

Query: # return recorded viability, T/C for entry CC(=O)OC12COC1CC(O)C1(C)C(=O)C(O)C3=C(C)C(OC(=O)C(O)C(NC(=O)OC(C)(C)C)c4ccccc4)CC(O)(C(OC(=O)c4ccccc4)C21)C3(C)C (centres undefined) + CCn1c(-c2cccnc2C(C)OC)c2c3cc(ccc31)N1CCOC(CC(NC(=O)C(C(C)C)N(C)C(=O)C3(F)CCN(C(=O)C#CC(C)(C)N(C)C)CC3)C(=O)N3CCCC(N3)C(=O)OCC(C)(C)C2)C1
Reply: 64.2

Query: # return recorded viability, T/C for entry CC(Nc1ccc2c(c1)OCCn1cc(N3C(=O)OCC3C(F)F)nc1-2)C(N)=O (centres undefined) + CCn1c(-c2cccnc2C(C)OC)c2c3cc(ccc31)N1CCOC(CC(NC(=O)C(C(C)C)N(C)C(=O)C3(F)CCN(C(=O)C#CC(C)(C)N(C)C)CC3)C(=O)N3CCCC(N3)C(=O)OCC(C)(C)C2)C1
Reply: 20.5

Query: # return recorded viability, T/C for entry CC(C)NCC(C(=O)N1CCN(c2ncnc3c2C(C)CC3O)CC1)c1ccc(Cl)cc1 (centres undefined) + CCn1c(-c2cc(N3CCN(C)CC3)cnc2C(C)OC)c2c3cc(ccc31)-c1csc(n1)CC(NC(=O)C1CC1C)C(=O)N1CCCC(N1)C(=O)OCC(C)(C)C2
Reply: 9.69

In the following, a different compound is considered.
Query: # return recorded viability, T/C for entry CCC(CC)c1cc(NC2CCC(N)C2)n2nccc2n1 (centres undefined) + CCn1c(-c2cccnc2C(C)OC)c2c3cc(ccc31)N1CCOC(CC(NC(=O)C(C(C)C)N(C)C(=O)C3(F)CCN(C(=O)C#CC(C)(C)N(C)C)CC3)C(=O)N3CCCC(N3)C(=O)OCC(C)(C)C2)C1
Reply: 19.1
